logP values, listed per item
procedure.text: Lipophilicity, log P of the compound
Assay type: physicochemical
assay.conditions: octanol/water
Please give the numeric answer without any surrounding text.

Record excerpt, results attached:
{"mol": "CCOc1cc(-c2nncn2C)ccc1Nc1ncc2cc(C)nc(N3CCC3(C)C)c2n1", "logP": 3.58}
{"mol": "COc1cc(-c2cnn(C)c2)ccc1Nc1ncc2ccnc(NCC(C)(C)C)c2n1", "logP": 4.27}
{"mol": "CCOc1cc(-c2nncn2C)ccc1Nc1ncc2cc(C)nc(NCC(C)(C)C)c2n1", "logP": 4.23}

Query compound follows.
Query :: Which logP is reported for this compound? COc1cc(-c2cnc(C)n2C)ccc1Nc1ncc2cc(C)nc(NCC(C)(C)C)c2n1
Result :: 4.55

---

Entries below carry reported pIC50 on CDK2/Cyclin A2 (Homo sapiens).
# reply with the number alone; pIC50 is -log10 of concentration in mol/L

Known pIC50 results, listed for orientation:
{"mol": "COc1cc(-c2nnc3n2CCC3)ccc1Nc1ncc2cc(C)nc(NCC(C)(C)C)c2n1", "pIC50": 6.60}
{"mol": "COc1cc(-c2nncn2C)ccc1Nc1ncc2cc(C)nc(NCC(C)(C)C)c2n1", "pIC50": 6.89}

Query :: Lookup: pIC50 / CDK2/Cyclin A2 (Homo sapiens) / COc1cc(-c2cnc(C)n2C)ccc1Nc1ncc2cc(C)nc(NCC(C)(C)C)c2n1
Result :: 5.85

Query :: Param readout = pIC50; param system = CDK2/Cyclin A2 (Homo sapiens); param query = COc1cc(-c2cnc(C)n2C)ccc1Nc1ncc2ccnc(NCC(C)(C)C)c2n1 ; response: value
Result :: 7.07

Query :: Lookup: pIC50 / CDK2/Cyclin A2 (Homo sapiens) / CCOc1cc(-c2nncn2C)ccc1Nc1ncc2cc(C)nc(N3CCCC3)c2n1
Result :: 5.96

---

tested.system: Mitogen-activated protein kinase 10 (Homo sapiens)
Sequence (P53779 whole entry): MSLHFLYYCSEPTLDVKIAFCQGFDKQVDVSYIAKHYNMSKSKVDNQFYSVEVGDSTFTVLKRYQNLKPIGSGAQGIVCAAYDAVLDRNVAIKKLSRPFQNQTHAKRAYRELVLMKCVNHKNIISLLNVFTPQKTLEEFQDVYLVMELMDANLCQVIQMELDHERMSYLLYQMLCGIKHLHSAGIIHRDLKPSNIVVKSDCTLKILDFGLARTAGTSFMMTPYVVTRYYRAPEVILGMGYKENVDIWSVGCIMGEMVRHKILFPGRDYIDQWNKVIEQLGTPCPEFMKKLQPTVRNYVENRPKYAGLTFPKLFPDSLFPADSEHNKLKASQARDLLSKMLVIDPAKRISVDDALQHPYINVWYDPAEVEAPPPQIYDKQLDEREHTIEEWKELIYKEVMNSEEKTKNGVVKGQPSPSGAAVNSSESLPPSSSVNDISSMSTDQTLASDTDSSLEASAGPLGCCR
procedure.text: Inhibition of recombinant human full length N-terminal GST-tagged JNK3 expressed in baculovirus expression system by Z'-LYTE assay
measured.property: IC50 (nM)
Please state the figure in nM; there is no need to write the unit.

Query :: Please report the recorded IC50 for CCOc1cc(-c2nncn2C)ccc1Nc1ncc2cc(C)nc(NCC(C)(C)C)c2n1 [BOS-172722] .
Result :: 242

---

Listed here are compounds together with their documented PPB.
procedure.text: Protein binding in mouse plasma
Type: ADME, cell-free
Just so you know, I need the unit written after the number.

Some solved cases for reference:
{"compound": "CCOc1cc(-c2nncn2C)ccc1Nc1ncc2cc(C)nc(N3CC4(CCOCC4)C3)c2n1", "PPB": "98.09%"}
{"compound": "CCOc1cc(-c2nncn2C)ccc1Nc1ncc2cc(C)nc(N3CC(C)(C)C3)c2n1", "PPB": "99.28%"}
{"compound": "CCOc1cc(-c2nncn2C)ccc1Nc1ncc2cc(C)nc(N[C@@H](C)C(C)(C)C)c2n1", "PPB": "99.91%"}

Continue with the next compound.
Query :: What PPB value was documented for this compound, CCOc1cc(-c2nncn2C)ccc1Nc1ncc2cc(C)nc(NCC(C)(C)C)c2n1 [BOS-172722] ?
Result :: 99.85%

---

tested.system: Dual specificity protein kinase TTK (Homo sapiens)
Sequence (P33981 whole entry): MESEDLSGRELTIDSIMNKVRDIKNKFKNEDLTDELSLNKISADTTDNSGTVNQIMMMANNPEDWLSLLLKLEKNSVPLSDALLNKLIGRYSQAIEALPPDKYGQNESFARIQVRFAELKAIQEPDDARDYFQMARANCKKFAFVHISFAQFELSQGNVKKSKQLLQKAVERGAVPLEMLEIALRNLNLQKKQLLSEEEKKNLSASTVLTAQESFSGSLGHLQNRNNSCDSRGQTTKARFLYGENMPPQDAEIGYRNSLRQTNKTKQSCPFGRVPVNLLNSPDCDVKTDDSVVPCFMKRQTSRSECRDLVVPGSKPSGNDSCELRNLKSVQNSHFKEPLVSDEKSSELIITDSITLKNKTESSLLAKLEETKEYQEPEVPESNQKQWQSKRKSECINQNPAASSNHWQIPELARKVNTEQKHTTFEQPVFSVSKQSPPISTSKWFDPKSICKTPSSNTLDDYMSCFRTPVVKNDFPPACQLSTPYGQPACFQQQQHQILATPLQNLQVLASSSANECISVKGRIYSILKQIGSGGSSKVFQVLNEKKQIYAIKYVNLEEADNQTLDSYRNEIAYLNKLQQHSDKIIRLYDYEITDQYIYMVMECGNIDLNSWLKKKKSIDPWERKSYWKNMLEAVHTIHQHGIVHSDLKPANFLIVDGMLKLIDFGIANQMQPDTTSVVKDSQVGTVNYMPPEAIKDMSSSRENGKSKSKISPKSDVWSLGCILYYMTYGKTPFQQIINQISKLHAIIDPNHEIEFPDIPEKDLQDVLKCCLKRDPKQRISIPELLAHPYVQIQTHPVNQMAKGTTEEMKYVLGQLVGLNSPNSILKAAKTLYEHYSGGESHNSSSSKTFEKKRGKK
# log10(IC50) values compiled below
In plain terms, each number is the log10 of measured IC50 in nM.

{"mol": "CCOc1cc(-c2nncn2C)ccc1Nc1ncc2cc(C)nc(N3CC4(CCOCC4)C3)c2n1", "log10(IC50)": 1.57}

Query :: Could you share what log10(IC50) was measured for COc1cc(-c2cnc(C)n2C)ccc1Nc1ncc2cc(C)nc(NCC(C)(C)C)c2n1 , tested on Dual specificity protein kinase TTK (Homo sapiens)?
Result :: 2.23

Query :: Hi! What's the reported log10(IC50) for CCOc1cc(-c2nncn2C)ccc1Nc1ncc2cc(C)nc(NCC(C)(C)C)c2n1 on Dual specificity protein kinase TTK (Homo sapiens)?
Result :: 1.80

Query :: For Dual specificity protein kinase TTK (Homo sapiens), provide log10(IC50) of COc1cc(-c2nnc3n2CCC3)ccc1Nc1ncc2cc(C)nc(NCC(C)(C)C)c2n1 please.
Result :: 2.38

Query :: Requested read-out log10(IC50), target or system Dual specificity protein kinase TTK (Homo sapiens), entry CCOc1cc(-c2nnc(C)n2C)ccc1Nc1ncc2cc(C)nc(NCC(C)(C)C)c2n1
Result :: 1.52

Query :: Request body: readout log10(IC50), system Dual specificity protein kinase TTK (Homo sapiens), query CCOc1cc(-c2nncn2C)ccc1Nc1ncc2cc(C)nc(N3CCCC3)c2n1 . Return the value.
Result :: 2.57

Query :: Dual specificity protein kinase TTK (Homo sapiens) / log10(IC50) / CCOc1cc(-c2nncn2C)ccc1Nc1ncc2cc(C)nc(N3CC(C)(C#N)C3)c2n1 : value?
Result :: 2.04

Query :: Provide the documented log10(IC50) with Dual specificity protein kinase TTK (Homo sapiens) as the system for CCOc1cc(-c2nnc(CCN(C)C)n2C)ccc1Nc1ncc2cc(C)nc(NCC(C)(C)C)c2n1
Result :: 2.36

Query :: Give the reported log10(IC50) for COc1cc(-c2cn(C)nc2C)ccc1Nc1ncc2ccnc(NCC(C)(C)C)c2n1 (system: Dual specificity protein kinase TTK (Homo sapiens)).
Result :: 2.36

Query :: Form entry - test system: Dual specificity protein kinase TTK (Homo sapiens); read-out: log10(IC50); compound: CCOc1cc(-c2nncn2C)ccc1Nc1ncc2cc(C)nc(N3CC(C)(C)C3)c2n1
Result :: 1.57

Query :: Write down the reported log10(IC50) of COc1cc(-c2nncn2C)ccc1Nc1ncc2ccnc(NCC(C)(C)C)c2n1 , test system: Dual specificity protein kinase TTK (Homo sapiens).
Result :: 0.54

Query :: Please state recorded log10(IC50) (tested on Dual specificity protein kinase TTK (Homo sapiens)) of CCOc1cc(-c2nncn2C)ccc1Nc1ncc2cc(C)nc(N3CCC3(C)C)c2n1
Result :: 3.58

Query :: Give the reported log10(IC50) for COc1cc(-c2nncn2C)ccc1Nc1ncc2cc(C)nc(NCC(C)(C)C)c2n1 (system: Dual specificity protein kinase TTK (Homo sapiens)).
Result :: 1.48

Query :: Lab note: need log10(IC50) with Dual specificity protein kinase TTK (Homo sapiens) for entry CCOc1cc(-c2nnc3n2CCC3)ccc1Nc1ncc2cc(C)nc(NCC(C)(C)C)c2n1 , please look it up.
Result :: 2.40

Query :: Field: log10(IC50) (Dual specificity protein kinase TTK (Homo sapiens)). Entry: COc1cc(-c2cnc(C)n2C)ccc1Nc1ncc2ccnc(NCC(C)(C)C)c2n1
Result :: 1.64

Query :: Test system Dual specificity protein kinase TTK (Homo sapiens); read-out log10(IC50); what value for CCOc1cc(-c2nncn2C)ccc1Nc1ncc2cc(C)nc(N[C@@H](C)C(C)(C)C)c2n1 ?
Result :: 1.36

Query :: Recall the recorded log10(IC50) for COc1cc(-c2cnn(C)c2C)ccc1Nc1ncc2ccnc(NCC(C)(C)C)c2n1 with Dual specificity protein kinase TTK (Homo sapiens) and state it.
Result :: 1.98

---

Known AUC(0-t) at 6 h of a selection of molecules
procedure.text: AUClast in mouse at 5 mg/kg, po measured after 6 hrs by ESI-LCMS/MS analysis
Type: ADME, organism-based
assay.conditions: in vivo
# output: bare number, implied unit µM·h

The following molecules have reported results that may help.
{"molecule": "CCOc1cc(-c2nncn2C)ccc1Nc1ncc2cc(C)nc(NCC(C)(C)C)c2n1 [BOS-172722]", "measured.property": "AUC(0-t) at 6 h", "experimental.value": 11}
{"molecule": "CCOc1cc(-c2nncn2C)ccc1Nc1ncc2cc(C)nc(N[C@@H](C)C(C)(C)C)c2n1", "measured.property": "AUC(0-t) at 6 h", "experimental.value": 13.8}
{"molecule": "CCOc1cc(-c2nncn2C)ccc1Nc1ncc2cc(C)nc(N3CC4(CCOCC4)C3)c2n1", "measured.property": "AUC(0-t) at 6 h", "experimental.value": 4.78}

Query :: Returns the measured AUC(0-t) at 6 h for the input molecule. Input: CCOc1cc(-c2nncn2C)ccc1Nc1ncc2cc(C)nc(N3CC(C)(C)C3)c2n1
Result :: 8.11

---

# CLH per entry
procedure.text: Intrinsic clearance in CD1 mouse liver microsomes assessed per mg protein at 1 uM preincubated for 10 mins followed NADPH/UDP-glucuronic acid addition and measured after 30 mins by LC-MS/MS analysis
Type: ADME, microsome
assay.conditions: 0.5 h
Field: numeric (µL/min/mg). Do not append units.

{"mol": "COc1cc(-c2nncn2C)ccc1Nc1ncc2ccnc(NCC(C)(C)C)c2n1", "CLH (µL/min/mg)": 81.5}

Query :: I would be grateful if you could share the reported CLH for COc1cc(-c2nncn2C)ccc1Nc1ncc2cc(C)nc(NCC(C)(C)C)c2n1 .
Result :: 41.1

Query :: May I ask what CLH has been recorded for CCOc1cc(-c2nnc3n2CCC3)ccc1Nc1ncc2cc(C)nc(NCC(C)(C)C)c2n1 ?
Result :: 36.4
